platelet count by entry:
# Procedure summary: Cynomolgus monkeys: hematology assays (Example 29)
# Format: in vivo
# Applied conditions: day 85
In the oligonucleotide strings, read from the 5' end, every base follows the letter of its sugar. An asterisk marks phosphorothioate; unmarked linkages are phosphodiester. Other units and linkages are bracketed, terminal groups are in braces. A string of capitals states the bases alone. e = 2'-O-(2-methoxyethyl) (MOE); [5mC] = 5-methylcytosine; d = 2'-deoxy (DNA)
Could you kindly put the unit after your number?

Known results for substances:
{"Substance": "ISIS 417002: gapmer of Table 8 (antisense eG*eG*dT*dG*d[5mC]*dA*d[5mC]*dA*dG*dT*dT*dT*d[5mC]*dT*dG*eG*e[5mC]*eA*eG*eG)", "platelet count": "418000 µL⁻¹"}
{"Substance": "ISIS 416850: gapmer of Table 8 (antisense eT*eG*e[5mC]*eA*e[5mC]*dA*dG*dT*dT*dT*d[5mC]*dT*dG*dG*d[5mC]*eA*eG*eG*e[5mC]*e[5mC])", "platelet count": "458000 µL⁻¹"}
{"Substance": "ISIS 416864: gapmer of Table 8 (antisense eG*eG*e[5mC]*eA*eG*d[5mC]*dG*dG*dA*d[5mC]*dG*dG*d[5mC]*dA*dT*eT*eG*eG*eT*eG)", "platelet count": "387000 µL⁻¹"}
{"Substance": "ISIS 416858: gapmer of Table 8 (antisense eA*e[5mC]*eG*eG*e[5mC]*dA*dT*dT*dG*dG*dT*dG*d[5mC]*dA*d[5mC]*eA*eG*eT*eT*eT)", "platelet count": "267000 µL⁻¹"}

Shift focus to the following entry.
Prompt: Return reported platelet count. Input substance: ISIS 416838: gapmer of Table 6 (antisense eG*e[5mC]*eA*eA*e[5mC]*d[5mC]*dG*dG*dG*dA*dT*dG*dA*dT*dG*eA*eG*eT*eG*e[5mC])
Response: 344000 µL⁻¹
